# assay_system: hMCHR (MCH receptor) (Homo sapiens, UniProt Q99705)
# Construct: (or internally produced); host or cells: CHO (Chinese hamster ovary) cells, membrane preparation
# Sequence (Q99705 whole entry): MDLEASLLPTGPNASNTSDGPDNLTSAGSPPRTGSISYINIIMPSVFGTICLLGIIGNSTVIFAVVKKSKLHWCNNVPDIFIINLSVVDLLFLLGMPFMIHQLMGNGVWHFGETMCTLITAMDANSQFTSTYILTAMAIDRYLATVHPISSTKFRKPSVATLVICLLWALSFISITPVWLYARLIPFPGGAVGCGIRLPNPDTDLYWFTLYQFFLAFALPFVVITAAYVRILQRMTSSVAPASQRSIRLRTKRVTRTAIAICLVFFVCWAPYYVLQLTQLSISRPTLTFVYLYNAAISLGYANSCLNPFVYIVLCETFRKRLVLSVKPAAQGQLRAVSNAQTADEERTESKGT
# protocol_description: MCH Assay PCOP Protocol ([125I]-MCH SPA binding to hMCHR-CHO membranes);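 further: A 0.4–50 nM B 51–500 nM C 501–2500 nM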
# stated_conditions: [125I]-MCH binding to hMCHR-CHO membranes; class symbols for ranges of Ki; read-out: Activity (Ki range)
Ki listing for selected compounds.
measure: Ki

In [3]: df
Out[3]:
                                   compound                              assay_system          result
0  Cc1ccc(NC(=O)NCC(CCN2CCC(N3CCCCC3)CC2)c2ccc(Cl)c(Cl)c2)cc1F (stereo not shown) [Example 361]  hMCHR (MCH receptor) (Homo sapiens, UniProt Q99705)  501 to 2500 nM
1  O=C(NCC(CCNCc1ccc2c(c1)OCO2)c1ccc(Cl)c(Cl)c1)Nc1ccc(Cl)c(Cl)c1 (stereo not shown) [Example 296]  hMCHR (MCH receptor) (Homo sapiens, UniProt Q99705)  501 to 2500 nM
2  O=C(NCc1cc(C(F)(F)F)cc(C(F)(F)F)c1)C(CCNCCCn1ccnc1)c1ccc(Cl)c(Cl)c1 (stereo not shown) [Example 388]  hMCHR (MCH receptor) (Homo sapiens, UniProt Q99705)  501 to 2500 nM
3  CN(C)CCCNCCC(CNC(=O)Nc1cc(Cl)cc(Cl)c1)c1ccc(-c2ccc(F)c(Cl)c2)cc1 (stereo not shown) [Example 224]  hMCHR (MCH receptor) (Homo sapiens, UniProt Q99705)    0.4 to 50 nM
4  CN(C)CCCNCCC(CNC(=O)Nc1cc(Cl)cc(Cl)c1)c1ccc(-c2ccc(O)cc2)cc1 (stereo not shown) [Example 251]  hMCHR (MCH receptor) (Homo sapiens, UniProt Q99705)    51 to 500 nM
5  O=S(=O)(NCC(CCNCCc1c[nH]c2ccccc12)c1cccc(Cl)c1)c1ccc(Cl)c(Cl)c1 (stereo not shown) [Example 340]  hMCHR (MCH receptor) (Homo sapiens, UniProt Q99705)  501 to 2500 nM
6  O=C(NCc1cc(C(F)(F)F)cc(C(F)(F)F)c1)C(CCN1CCC(O)(c2ccc(Cl)cc2)CC1)c1ccc(Cl)c(Cl)c1 (stereo not shown) [Example 390]  hMCHR (MCH receptor) (Homo sapiens, UniProt Q99705)  501 to 2500 nM

* * *

Listed here are compounds together with their documented pKi.
# assay_system: hMCHR (MCH receptor) (Homo sapiens, UniProt Q99705)
# Construct: (or internally produced); host or cells: CHO (Chinese hamster ovary) cells, membrane preparation
# protocol_description: MCH Assay PCOP Protocol ([125I]-MCH SPA binding to hMCHR-CHO membranes);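 further: A 0.4–50 nM B 51–500 nM C 501–2500 nM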
# stated_conditions: [125I]-MCH binding to hMCHR-CHO membranes; class symbols for ranges of Ki; read-out: Activity (Ki range)
pKi: −log10 of the molar value.
measure: pKi

In [3]: df
Out[3]:
                                   compound                              assay_system  measure        result
0  CN(C)C1CCN(CCC(CNC(=O)Nc2cc(Cl)cc(Cl)c2)c2ccc(Cl)c(Cl)c2)C1 (stereo not shown)  hMCHR (MCH receptor) (Homo sapiens, UniProt Q99705)      pKi  6.30 to 7.29
1  Cc1ccc(-c2ccc(C(CCNCCCN(C)C)CNC(=O)Nc3cc(Cl)cc(Cl)c3)cc2)cc1 (stereo not shown)  hMCHR (MCH receptor) (Homo sapiens, UniProt Q99705)      pKi  5.60 to 6.30
2  Cc1cc(CNC(=O)C(CCN2CCCC(C)C2)c2ccc(Cl)c(Cl)c2)cc(C(F)(F)F)c1 (stereo not shown)  hMCHR (MCH receptor) (Homo sapiens, UniProt Q99705)      pKi  5.60 to 6.30
3  O=C(NCC(CCNC1CCC1)c1ccc(Cl)c(Cl)c1)Nc1cc(C(F)(F)F)cc(C(F)(F)F)c1 (stereo not shown)  hMCHR (MCH receptor) (Homo sapiens, UniProt Q99705)      pKi  6.30 to 7.29
